System: MCF-7 cells
Protocol details: MTT cytotoxic assay on MCF-7 cells
Type: cell-based, Human
Settings: Homo sapiens, MCF7
Parameter: pIC50
pIC50 here is simply -log10 of the concentration when that concentration is written in mol/L.

| Molecule | Target system | Numeric readout |
| --- | --- | --- |
| O=C(Cn1cnc2scc(-c3cccs3)c2c1=O)NN1C(=O)CSC1=Nc1ccccc1 | MCF-7 cells | 5.61 |
| Cc1cc(=O)n(C(=O)Cn2cnc3scc(-c4cccs4)c3c2=O)[nH]1 | MCF-7 cells | 5.47 |
| O=C(Cn1cnc2scc(-c3cccs3)c2c1=O)NNC(=S)Nc1ccccc1 | MCF-7 cells | 5.45 |
| COc1cccc(C2SCC(=O)N2NC(=O)Cn2cnc3scc(-c4cccs4)c3c2=O)c1OC (stereo not shown) | MCF-7 cells | 5.90 |
| Nc1cc(O)cc(=O)n1NC(=O)Cn1cnc2scc(-c3cccs3)c2c1=O | MCF-7 cells | 5.92 |
| NNC(=O)Cn1cnc2scc(-c3cccs3)c2c1=O | MCF-7 cells | 5.31 |

Kindly consider the entry below.
[ask] Entry NC1=CC(N)N(NC(=O)Cn2cnc3scc(-c4cccs4)c3c2=O)C=C1 (stereo not shown) has what pIC50?
[reply] 5.93

---

Protocol details: Average animal weight in MCF-7 mouse xenograft model
Assay type: in vivo
Settings: nude mice with MCF-7 xenograft, i.p., day 12
Examples of molecules with documented Average Weight of Animals in Grams after Days 12 follow.
Express the result in Grams but write the number alone.

| Molecule | Numeric readout |
| --- | --- |
| Cc1cc(=O)n(C(=O)Cn2cnc3scc(-c4cccs4)c3c2=O)[nH]1 | 27.2 |
| CCOC(=O)Cn1cnc2scc(-c3cccs3)c2c1=O | 27.8 |
| O=c1oc(Cn2cnc3scc(-c4cccs4)c3c2=O)nc2ccccc12 | 22.8 |
| Nc1cc(O)cc(=O)n1NC(=O)Cn1cnc2scc(-c3cccs3)c2c1=O | 25.9 |
| O=C(Cn1cnc2scc(-c3cccs3)c2c1=O)NNC(=S)Nc1ccccc1 | 24.8 |

[ask] Entry COc1cccc(C2SCC(=O)N2NC(=O)Cn2cnc3scc(-c4cccs4)c3c2=O)c1OC (stereo not shown) has what Average Weight of Animals in Grams after Days 12?
[reply] 25.1

[ask] Entry `NNC(=O)Cn1cnc2scc(-c3cccs3)c2c1=O` has what Average Weight of Animals in Grams after Days 12?
[reply] 23.7

---

Examples of compounds with documented Average Weight of Animals in Grams after Days 20 follow.
Protocol details: Average animal weight in MCF-7 mouse xenograft model
Format: in vivo
Settings: nude mice with MCF-7 xenograft, i.p., day 20
Express the result in Grams but write the number alone.

These solved cases illustrate the format of a correct answer.
| Compound | Unit label | Numeric readout |
| --- | --- | --- |
| O=C(Cn1cnc2scc(-c3cccs3)c2c1=O)NN1C(=O)CSC1=Nc1ccccc1 [Compound 11] | Grams | 26.3 |
| COc1cccc(C=NNC(=O)Cn2cnc3scc(-c4cccs4)c3c2=O)c1OC [Compound 6] | Grams | 23.5 |
| COc1cccc(C2SCC(=O)N2NC(=O)Cn2cnc3scc(-c4cccs4)c3c2=O)c1OC (stereo not shown) [Compound 8] | Grams | 24.5 |

Kindly consider the entry below.
[ask] Entry CC(=O)NNC(=O)Cn1cnc2scc(-c3cccs3)c2c1=O [Compound 13] has what Average Weight of Animals in Grams after Days 20?
[reply] 25.3
